Ref: ChEMBL document CHEMBL1154397

Test system: Liver microsomes
Method notes: Metabolic stability in human liver microsomes assessed as clearance
Assay type: ADME, Microsome
Experimental endpoint: microsomal CLint (µL/min/mg)
Give the value in µL/min/mg but do not write µL/min/mg after it.

Molecule: Clc1ccc(-c2n[nH]cc2-c2ccnc(NC3CCCCC3)n2)cc1
Unit of measure: µL/min/mg
Observed: 156

Attention now shifts to the item below.
Prompt: Let me know recorded microsomal CLint for `CC(C)Nc1nccc(-c2cn[nH]c2)n1` , thanks.
Response: 21

---

Test system: Mitogen-activated protein kinase 11 (Homo sapiens)
Method notes: Inhibition of SAPK2b
Experimental endpoint: pIC50
Please report pIC50 as the negative decimal logarithm of the molar concentration, giving only the number.

Prompt: Let me know recorded pIC50 for `O[C@H]1CC[C@H](c2[nH]ncc2-c2ccnc(NC3CCCC3)n2)CC1` , thanks.
Response: 4.82
